molecular target: CDK2/cyclin E (Homo sapiens); assay: Kinase assay CDK2/cyclin E; type: biochemical; conditions: Ki calculated (Cheng-Prusoff) from experimentally determined IC50 and Km,ATP; read-out: Kinase Inhibition Ki CDK2 - cyclin E
OBSERVABLE: Ki (nM)
Numeric answer only, unit nM assumed.

*Q* Look up Ki for this compound: Cc1c(-c2ccnc(Nc3cccc([N+](=O)[O-])c3)n2)sc(=O)n1C
*A* 10

*Q* Look up Ki for this compound: CCn1c(C)c(-c2ccnc(Nc3ccc(Cl)cc3)n2)sc1=O
*A* 570

*Q* Look up Ki for this compound: Cc1ccc([N+](=O)[O-])cc1Nc1nccc(-c2sc(=O)n(C)c2C)n1
*A* 6500

*Q* Look up Ki for this compound: Cc1c(-c2ccnc(Nc3ccc(Cl)nc3)n2)sc(=O)n1CCC(C)C
*A* 1100

*Q* Look up Ki for this compound: CC(=O)N1CCN(c2cccc(Nc3nccc(-c4sc(=O)n(C)c4C)n3)c2)CC1
*A* 1300

*Q* Look up Ki for this compound: CCNS(=O)(=O)c1cccc(Nc2nccc(-c3sc(=O)n(C)c3C)n2)c1
*A* 350

*Q* Look up Ki for this compound: Cc1c(-c2ccnc(Nc3ccc(Cl)c(C(F)(F)F)c3)n2)sc(=O)n1C
*A* 200

*Q* Look up Ki for this compound: CCn1c(C)c(-c2ccnc(Nc3cccc(O)c3)n2)sc1=O
*A* 2

*Q* Look up Ki for this compound: Cc1c(-c2ccnc(Nc3ccc(Cl)cc3)n2)sc(=O)n1C
*A* 130

*Q* Look up Ki for this compound: Cc1c(-c2ccnc(Nc3ccc(N4CCN(C)CC4)cc3)n2)sc(=O)n1C
*A* 530

*Q* Look up Ki for this compound: Cc1c(-c2ccnc(Nc3ccc(S(=O)(=O)NCCO)cc3)n2)sc(=O)n1C
*A* 0.5

----------
target: CDK9/cyclin T1 (Homo sapiens, UniProt P50750); assay: Kinase assay CDK9/cyclin T1; conditions: Ki calculated (Cheng-Prusoff) from experimentally determined IC50 and Km,ATP; read-out: Kinase Inhibition Ki CDK9 - cyclin T1
Sequence (P50750 whole entry, species assumed): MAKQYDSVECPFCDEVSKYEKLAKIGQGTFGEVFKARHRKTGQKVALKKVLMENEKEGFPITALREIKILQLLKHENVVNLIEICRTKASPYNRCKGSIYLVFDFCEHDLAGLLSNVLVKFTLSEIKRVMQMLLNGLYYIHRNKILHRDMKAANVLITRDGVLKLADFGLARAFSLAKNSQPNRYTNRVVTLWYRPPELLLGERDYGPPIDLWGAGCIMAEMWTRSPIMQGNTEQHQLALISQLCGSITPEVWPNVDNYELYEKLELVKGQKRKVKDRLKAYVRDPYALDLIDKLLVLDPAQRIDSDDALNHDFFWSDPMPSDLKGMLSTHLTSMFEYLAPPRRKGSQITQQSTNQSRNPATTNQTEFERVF
Sequence (O60563 whole entry partner, species assumed): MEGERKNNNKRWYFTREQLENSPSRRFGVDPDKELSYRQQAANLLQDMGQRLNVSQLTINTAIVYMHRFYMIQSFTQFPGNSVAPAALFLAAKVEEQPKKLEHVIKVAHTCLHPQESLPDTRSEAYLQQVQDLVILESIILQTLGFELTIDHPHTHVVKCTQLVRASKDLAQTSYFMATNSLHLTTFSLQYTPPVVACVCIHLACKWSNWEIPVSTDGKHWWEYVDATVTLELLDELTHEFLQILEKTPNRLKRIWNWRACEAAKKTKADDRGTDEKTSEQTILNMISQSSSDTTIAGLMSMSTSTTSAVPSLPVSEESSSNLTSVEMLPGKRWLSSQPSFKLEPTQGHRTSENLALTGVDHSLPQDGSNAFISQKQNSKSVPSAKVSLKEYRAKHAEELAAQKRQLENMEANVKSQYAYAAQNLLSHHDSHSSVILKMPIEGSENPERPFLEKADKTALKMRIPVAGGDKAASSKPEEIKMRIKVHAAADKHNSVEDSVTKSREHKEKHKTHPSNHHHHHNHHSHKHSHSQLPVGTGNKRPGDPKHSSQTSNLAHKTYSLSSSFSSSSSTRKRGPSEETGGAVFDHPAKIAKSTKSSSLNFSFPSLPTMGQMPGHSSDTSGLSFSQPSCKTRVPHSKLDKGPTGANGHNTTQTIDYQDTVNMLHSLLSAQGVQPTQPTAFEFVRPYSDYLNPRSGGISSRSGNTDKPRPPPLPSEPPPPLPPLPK
Give measured pKi for each item. Keep answers brief.
Scale: negative log10 of molar concentration, which is what pKi denotes.

*Q* Look up pKi for this molecule: COCCNS(=O)(=O)c1ccc(Nc2nccc(-c3sc(=O)n(C)c3C)n2)cc1
*A* 7.85

*Q* Look up pKi for this molecule: Cc1c(-c2ccnc(Nc3ccc(N(C)C)cc3)n2)sc(=O)n1C
*A* 7.39

*Q* Look up pKi for this molecule: Cc1c(-c2ccnc(Nc3cccc([N+](=O)[O-])c3)n2)sc(=O)n1CCC(C)C
*A* 6.72

*Q* Look up pKi for this molecule: CCn1c(C)c(-c2ccnc(Nc3ccc(Cl)c(C(F)(F)F)c3)n2)sc1=O
*A* 6.64

*Q* Look up pKi for this molecule: CCn1c(C)c(-c2ccnc(Nc3ccc(OC)nc3)n2)sc1=O
*A* 8.62

*Q* Look up pKi for this molecule: COc1ccc(Nc2nccc(-c3sc(=O)n(CCC(C)C)c3C)n2)cn1
*A* 6.31

*Q* Look up pKi for this molecule: CCn1c(C)c(-c2ccnc(Nc3ccc(C)c(O)c3)n2)sc1=O
*A* 8.52

*Q* Look up pKi for this molecule: CCNS(=O)(=O)c1cccc(Nc2nccc(-c3sc(=O)n(C)c3C)n2)c1
*A* 8.32

*Q* Look up pKi for this molecule: Cc1c(-c2ccnc(Nc3cccc(S(=O)(=O)NCCO)c3)n2)sc(=O)n1C
*A* 8.02

*Q* Look up pKi for this molecule: CC(=O)NCc1ccc(Nc2nccc(-c3sc(=O)n(C)c3C)n2)cc1
*A* 8.15

*Q* Look up pKi for this molecule: CCn1c(C)c(-c2ccnc(Nc3ccc(Cl)cc3)n2)sc1=O
*A* 7.24

*Q* Look up pKi for this molecule: Cc1c(-c2ccnc(Nc3ccc(O)cc3)n2)sc(=O)n1C
*A* 9.15
